Origin of the recorded values: ChEMBL document CHEMBL1155479

# SYSTEM_UNDER_TEST: 5-hydroxytryptamine receptor 6 (Homo sapiens, UniProt P50406)
# Sequence (P50406 whole entry): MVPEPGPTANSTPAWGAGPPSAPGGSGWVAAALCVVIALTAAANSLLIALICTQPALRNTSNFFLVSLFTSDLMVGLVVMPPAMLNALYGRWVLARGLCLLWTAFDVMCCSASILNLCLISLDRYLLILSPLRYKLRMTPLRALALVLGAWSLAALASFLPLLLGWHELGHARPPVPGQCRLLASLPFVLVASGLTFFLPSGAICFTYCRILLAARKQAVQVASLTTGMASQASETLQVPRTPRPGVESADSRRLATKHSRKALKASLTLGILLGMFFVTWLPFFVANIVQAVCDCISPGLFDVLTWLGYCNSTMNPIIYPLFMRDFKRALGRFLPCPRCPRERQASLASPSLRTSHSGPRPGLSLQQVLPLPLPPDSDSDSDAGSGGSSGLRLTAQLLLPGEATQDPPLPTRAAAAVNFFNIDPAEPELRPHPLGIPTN
# PROTOCOL_NOTES: Displacement of [3H]LSD form human recombinant 5HT6 receptor
Exercise: for every item that follows, state its recorded Ki.

-- ask Notebook: pull reported Ki for 5-hydroxytryptamine receptor 6 (Homo sapiens, UniProt P50406), entry `NC[C@@H]1CCCc2cc(S(=O)(=O)c3cccc(F)c3)ccc21`
-- reply 0.0794 nM

-- ask Find Ki (5-hydroxytryptamine receptor 6 (Homo sapiens, UniProt P50406)) for the entry `CS(=O)(=O)NC[C@@H]1CCCc2cc(S(=O)(=O)c3cccc(F)c3)ccc21`
-- reply 0.2 nM

-- ask What Ki appears in the records for this compound with 5-hydroxytryptamine receptor 6 (Homo sapiens, UniProt P50406)? N=C(N)NCC1CCCc2cc(S(=O)(=O)c3ccccc3)ccc21 (stereo not given)
-- reply 0.158 nM

-- ask Value wanted: Ki (5-hydroxytryptamine receptor 6 (Homo sapiens, UniProt P50406)) of entry `O=S(=O)(c1cccc(F)c1)c1cc(F)c2c(c1)CCC[C@H]2CNCCO`
-- reply 0.158 nM

-- ask Lookup: Ki / 5-hydroxytryptamine receptor 6 (Homo sapiens, UniProt P50406) / `O=C(NC[C@@H]1CCCc2cc(S(=O)(=O)c3cccc(F)c3)ccc21)[C@H]1CCCN1`
-- reply 0.631 nM

-- ask Lab note: need Ki for `NC[C@@H]1CCCc2cc(S(=O)(=O)c3cn[nH]c3)ccc21` on 5-hydroxytryptamine receptor 6 (Homo sapiens, UniProt P50406), anyone have it?
-- reply 2 nM

-- ask Give the reported Ki for `CC(=O)NC[C@@H]1CCCc2cc(S(=O)(=O)c3cccc(F)c3)ccc21` (system: 5-hydroxytryptamine receptor 6 (Homo sapiens, UniProt P50406)).
-- reply 0.126 nM

-- ask State its Ki on 5-hydroxytryptamine receptor 6 (Homo sapiens, UniProt P50406): `CNS(=O)(=O)NC[C@@H]1CCCc2cc(S(=O)(=O)c3cccc(F)c3)ccc21`
-- reply 1 nM

-- ask Item: `COCCNC[C@@H]1CCCc2cc(S(=O)(=O)c3cccc(F)c3)ccc21` Test system: 5-hydroxytryptamine receptor 6 (Homo sapiens, UniProt P50406) Read-out: Ki Value: ?
-- reply 0.251 nM

-- ask Param readout= Ki; system= 5-hydroxytryptamine receptor 6 (Homo sapiens, UniProt P50406); entry= `NC[C@@H]1CCCc2cc(S(=O)(=O)c3cccc(O)c3)ccc21` ; returns value.
-- reply 0.251 nM

-- ask Requested read-out Ki, target or system 5-hydroxytryptamine receptor 6 (Homo sapiens, UniProt P50406), entry `O=C(NC[C@@H]1CCCc2cc(S(=O)(=O)c3cccc(F)c3)ccc21)c1ccc[nH]1`
-- reply 5.01 nM

-- ask Under 5-hydroxytryptamine receptor 6 (Homo sapiens, UniProt P50406): Ki value of `O=S(=O)(c1cccc(F)c1)c1ccc2c(c1)CCC[C@H]2CNS(=O)(=O)C(F)(F)F` ?
-- reply 31.6 nM

-- ask Recorded Ki for `NCC(=O)NC[C@@H]1CCCc2cc(S(=O)(=O)c3cccc(F)c3)ccc21` with 5-hydroxytryptamine receptor 6 (Homo sapiens, UniProt P50406), please?
-- reply 0.316 nM

-- ask // lookup Ki | system=5-hydroxytryptamine receptor 6 (Homo sapiens, UniProt P50406) | key= `CC(=O)NC[C@@H]1CCCc2cc(S(=O)(=O)c3ccccc3)cc(F)c21`
-- reply 0.316 nM

-- ask Give 5-hydroxytryptamine receptor 6 (Homo sapiens, UniProt P50406) Ki for `NC(=O)CNC[C@@H]1CCCc2cc(S(=O)(=O)c3cccc(F)c3)ccc21`
-- reply 0.1 nM

-- ask Which measured Ki belongs to `O=C(CO)NC[C@@H]1CCCc2cc(S(=O)(=O)c3cccc(F)c3)cc(F)c21` , tested on 5-hydroxytryptamine receptor 6 (Homo sapiens, UniProt P50406)?
-- reply 0.251 nM

-- ask For 5-hydroxytryptamine receptor 6 (Homo sapiens, UniProt P50406), provide Ki of `CN(C[C@@H]1CCCc2cc(S(=O)(=O)c3cccc(F)c3)ccc21)S(C)(=O)=O` please.
-- reply 0.398 nM

-- ask Observed Ki on 5-hydroxytryptamine receptor 6 (Homo sapiens, UniProt P50406) for `NC[C@@H]1CCCc2cc(S(=O)(=O)Cc3ccccc3)ccc21` , please.
-- reply 158 nM

-- ask API: value(readout=Ki, system=5-hydroxytryptamine receptor 6 (Homo sapiens, UniProt P50406)) for record `NC(=O)NC[C@@H]1CCCc2cc(S(=O)(=O)c3cccc(F)c3)ccc21`
-- reply 0.2 nM

-- ask Reported Ki for 5-hydroxytryptamine receptor 6 (Homo sapiens, UniProt P50406), given `CN(C[C@@H]1CCCc2cc(S(=O)(=O)c3cccc(F)c3)ccc21)S(N)(=O)=O` ?
-- reply 3.98 nM
